Let's look at some compounds and their measured inhibition (viability loss, TRAIL sensitization).
assay: viability loss with TRAIL in NB7+C8 cells, primary screen, TRAIL sensitizer project, cell-based, ATPlite luminescence (AID 624354); conditions: at 10 µM, active compounds read high
The whole screen tested about 360,000 compounds, of which about 3,800 (1.1%) were called active. The sample holds actives, similar compounds and a random draw of the others, so the mix is not that of the screen.

# count of solved cases: 3
- compound: "COC(=O)c1cc(NS(=O)(=O)c2ccc3c(c2)c(=O)n(C)c(=O)n3C)cc(C(=O)OC)c1"
  result: "15.9% (inactive)"
- compound: "O=C(CSC(=S)N1CCCCC1)c1c(F)cccc1F"
  result: "3.44% (inactive)"
- compound: "O=C(CSC(=S)N1CCOCC1)c1ccccc1"
  result: "57.5% (active)"

# input for lookup
Asked: Fill in the blank: the reported inhibition (viability loss, TRAIL sensitization) of O=C(NCC(O)c1nc2ccccc2[nH]1)c1ccc(Br)cc1 (centres undefined) is ____.
Given back: -0.934% (inactive)
